- System: P12-Ichikawa
- protocol-text: cell viability relative to DMSO control; higher = less cytotoxic
- condition-set: RPMI 5 mM glucose + 10% FBS; 48 h; 0.0632 µM
measure: cell viability (%)
The answer is to be given in %; state only the numeric part.

// below: answered compounds
chem-smiles	unit-name	obs-value
COc1ccc([C@@H]2CC(=O)c3c(O)cc(O[C@@H]4O[C@H](CO[C@@H]5O[C@@H](C)[C@H](O)[C@@H](O)[C@H]5O)[C@@H](O)[C@H](O)[C@H]4O)cc3O2)cc1O	%	107
C=CCc1cccc(/C=N/NC(=O)CN2CCN(Cc3ccccc3)CC2)c1O	%	110
CC[C@@]1(O)C(=O)OC\C2=C1\C=C\3N(CC4=C3N=C5C=CC=CC5=C4)C2=O	%	10.9
CC(/C=C/C(=O)NO)=C\[C@@H](C)C(=O)c1ccc(N(C)C)cc1	%	119

Q) Recorded cell viability of COC/1=C/C=C2\C(=C/C1=O)[C@H](CCC3=CC(=C(OC)C(=C23)OC)OC)NC(C)=O , please.
A) 9.46

Q) Recorded cell viability of C[S+](=O)([O-])c1ccc(-c2cnc(N)c(C(=O)Nc3ccccc3)n2)cc1 , please.
A) 123

Q) Recorded cell viability of CC(C)C[C@H](NC(=O)CNC(=O)c1cc(Cl)ccc1Cl)B(O)O , please.
A) 102

* * *

- Test system: SEM cells
- protocol-text: cell viability relative to DMSO control; higher = less cytotoxic
- condition-set: RPMI 5 mM glucose + 10% FBS; 48 h; 1.71 µM
Measured cell viability, listed per entry.
The answer is to be given in %; state only the numeric part.

compound	obs-value
CN1\C(=C(\O)C2=C(C=CC=C2)[S+]1([O-])=O)C(=O)NC3=CC=CC=N3	54.8
O=C(O)CCn1c2c(c3ccccc31)C[C@H](N[S+](=O)([O-])c1ccc(F)cc1)CC2	117
CC(/C=C/C(=O)NO)=C\[C@@H](C)C(=O)c1ccc(N(C)C)cc1	5.17
CCCCCCCCCC(=O)N[C@@H](Cc1c[nH]c2ccccc12)C(=O)N[C@H](CC(N)=O)C(=O)N[C@@H](CC(=O)O)C(=O)N[C@@H]1C(=O)NCC(=O)N[C@@H](CCCN)C(=O)N[C@@H](CC(=O)O)C(=O)N[C@H](C)C(=O)N[C@@H](CC(=O)O)C(=O)NCC(=O)N[C@H](CO)C(=O)N[C@@H]([C@@H](C)CC(=O)O)C(=O)N[C@@H](CC(=O)c2ccccc2N)C(=O)O[C@@H]1C	102
Cc1cc(Nc2cc(CN3CCOCC3)c3nc(C)c(Cc4ccc(Cl)cc4F)n3n2)[nH]n1	58.8

Q) Recorded cell viability of O=C(Nc1ncc(SCCN2CCCC2)s1)[C@]1(c2ccc([S+](=O)([O-])C3CC3)cc2)C[C@H]1C1CCCCC1 , please.
A) 71.2

Q) Recorded cell viability of CC[C@H](C)C(=O)O[C@H]1C[C@H](O)\C=C2\C=C/[C@H](C)[C@H](CC[C@@H](O)C[C@@H](O)CC(O)=O)[C@@H]12 , please.
A) 118

Q) Recorded cell viability of NC(=O)C1CCCc2c1[nH]c1ccc(Cl)cc21 (stereo not drawn) , please.
A) 115

* * *

- Tested on: P12-Ichikawa
- protocol-text: cell viability relative to DMSO control; higher = less cytotoxic
- condition-set: RPMI 5 mM glucose + 10% dialyzed FBS; 48 h; 0.00702 µM
Measured cell viability, listed per entry.

chem-smiles	cell viability
CCC(=O)N[C@H]1CC[C@H](C(=O)N(C)c2ccc(-c3nc4ccccc4o3)cc2)C1	91.5%
O=C(c1ccc(F)c(F)c1Nc1ccc(I)cc1F)N1CC(O)([C@@H]2CCCCN2)C1	115%
O=C1Nc2ccc(I)cc2/C1=C/c1cc(Br)c(O)c(Br)c1	110%
Cc1cc(Nc2cc(CN3CCOCC3)c3nc(C)c(Cc4ccc(Cl)cc4F)n3n2)[nH]n1	115%
Cc1[nH]c(/C=C2\C(=O)Nc3ccccc32)c(C)c1CCC(=O)O	113%

Q) Recorded cell viability of COC1=C2C[C@@H](C)C[C@H](OC)[C@H](O)[C@@H](C)/C=C(\C)[C@H](OC(N)=O)[C@@H](OC)/C=C/C=C(\C)C(=O)NC(=CC1=O)C2=O , please.
A) 114%

Q) Recorded cell viability of O=C(O)CCn1c2c(c3ccccc31)C[C@H](N[S+](=O)([O-])c1ccc(F)cc1)CC2 , please.
A) 116%

Q) Recorded cell viability of C[C@H]1[C@@H](C(=O)C[C@H]2O[C@@H]3O[C@]4(C)CC[C@H]5[C@H](C)CC[C@@H]([C@H]2C)[C@@]35OO4)O[C@@H]2O[C@]3(C)CC[C@H]4[C@H](C)CC[C@@H]1[C@@]24OO3 , please.
A) 112%
